- Read-out: Matrix Metallopeptidase 9 (MMP9), MMP9 (gene 4318)
- RUN_DESCRIPTION: BSK_KF3CT_MMP9: BioMAP Diversity Plus: KF3CT Assay for Matrix Metallopeptidase 9 (MMP9) Biomarker Activity (AID 2283074);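 for AC50: MMP9 protein level quantified by ELISA in the co-culture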
- APPLIED_CONDITIONS: primary human keratinocytes with fibroblasts; actives raise or lower the signal
- Experimental: BSK_KF3CT is a cell-based, multiplexed-readout assay that uses keratinocytes and foreskin fibroblasts, a human skin primary cell co-culture, with measurements taken at 24 hours after chemical dosing in a 96-well plate.BSK_KF3CT_MMP9 is an assay component measured in the BSK_KF3CT assay. It measures MMP-9 antibody related to regulation of gene expression using ELISA technology.Data from the assay component BSK_KF3CT_MMP9 was analyzed into 1 assay endpoint. […]
The source made the active and inactive calls. Rule for the calls: active = hit-call score of the fitted dose curve at least 0.9, where 1 is the maximum; inactive = score below 0.9.
PROPERTY_NAME: AC50

>>> observed_measurement("OCC(F)(F)C(F)(F)C(F)(F)C(F)(F)C(F)(F)C(F)F")
"inactive"
>>> observed_measurement("CCc1ccc(C(c2ccc(CC)cc2)C(Cl)Cl)cc1")
"11.9 µM (active)"
>>> observed_measurement("O=S(=O)(OCCOC(F)(F)F)C(F)(F)F")
"inactive"
>>> observed_measurement("C=CC(F)(F)C(F)(F)C(F)(F)C(F)(F)C(F)(F)C(F)(F)C(F)(F)C(F)(F)F")
"inactive"

----------
- ASSAY_TARGET: Cellular tumor antigen p53 (Homo sapiens)
- RUN_DESCRIPTION: ATG_p53_CIS: Attagene CIS-FACTORIAL HepG2 Assay for human p53 Transcription Factor (AID 2282994)
- APPLIED_CONDITIONS: HepG2 p53 cis-element reporter, Attagene mRNA; actives raise or lower the signal
Calls of active or inactive are those of the source. How the source made its calls: active means hit-call score of the fitted dose curve at least 0.9, where 1 is the maximum; inactive means score below 0.9.
// one of active, inactive, no free text

In: Could you kindly confirm the outcome this assay logged for "O=C(C=Cc1ccccc1)OCC=Cc1ccccc1" ?
Out: inactive

In: Could you kindly confirm the outcome this assay logged for "OCC(F)(F)C(F)(F)C(F)(F)C(F)(F)C(F)(F)C(F)F" ?
Out: inactive

In: Could you kindly confirm the outcome this assay logged for "Nc1ccc([N+](=O)[O-])cc1O" ?
Out: inactive

In: Could you kindly confirm the outcome this assay logged for "FC(F)(F)C(F)(F)C(F)(F)C(F)(F)C(F)(F)C(F)(F)C(F)(F)C(F)(F)F" ?
Out: inactive

In: Could you kindly confirm the outcome this assay logged for CCCCCCC(C)OC(=O)CCCCC(=O)OC(C)CCCCCC (configuration not stated) ?
Out: inactive

In: Could you kindly confirm the outcome this assay logged for "FC(F)(F)C(F)(F)C(F)(F)C(F)(F)C(F)(F)C(F)(F)CCS" ?
Out: inactive

In: Could you kindly confirm the outcome this assay logged for "O=C(O)C(F)(F)C(F)(F)C(F)(F)F" ?
Out: inactive

In: Could you kindly confirm the outcome this assay logged for "CNC(=S)NC" ?
Out: inactive

In: Could you kindly confirm the outcome this assay logged for "Oc1ccc(Nc2ccccc2)cc1" ?
Out: inactive

In: Could you kindly confirm the outcome this assay logged for "CCCCOc1ccc(N)cc1" ?
Out: inactive

In: Could you kindly confirm the outcome this assay logged for O=C(O)C(F)(OC(F)(F)C(F)(OC(F)(F)C(F)(F)C(F)(F)F)C(F)(F)F)C(F)(F)F (configuration not stated) ?
Out: inactive

In: Could you kindly confirm the outcome this assay logged for "NC(=O)C(F)(F)C(F)(F)C(F)(F)C(F)(F)F" ?
Out: inactive

In: Could you kindly confirm the outcome this assay logged for "C=C(C)C(=O)OCC(F)(F)C(F)(F)C(F)(F)C(F)(F)C(F)(F)C(F)(F)C(F)(F)F" ?
Out: inactive

In: Could you kindly confirm the outcome this assay logged for "O=C(O)C(F)(F)C(F)(F)C(F)(F)C(F)(F)F" ?
Out: inactive

In: Could you kindly confirm the outcome this assay logged for "FC(F)(F)C(F)(F)C(F)(F)C(F)(F)C(F)(F)CCI" ?
Out: inactive

In: Could you kindly confirm the outcome this assay logged for "CCCCCC=O" ?
Out: inactive

In: Could you kindly confirm the outcome this assay logged for "O=C(O)C(F)(F)C(F)(F)C(F)(F)C(F)(F)C(F)(F)C(F)(F)C(F)(F)C(F)(F)C(F)(F)C(F)F" ?
Out: inactive

In: Could you kindly confirm the outcome this assay logged for "FC(F)(I)C(F)(F)C(F)(F)C(F)(F)I" ?
Out: inactive

In: Could you kindly confirm the outcome this assay logged for "Nc1ccc(S(=O)(=O)Nc2nccs2)cc1" ?
Out: inactive

In: Could you kindly confirm the outcome this assay logged for "O=C(O)C(F)(F)C(F)(F)OC(F)(F)F" ?
Out: inactive

In: Could you kindly confirm the outcome this assay logged for "CC(=O)Nc1ccc(N=Nc2cc(C)ccc2O)cc1" ?
Out: inactive

In: Could you kindly confirm the outcome this assay logged for "c1ccc(-c2ccccc2-c2ccccc2)cc1" ?
Out: inactive

In: Could you kindly confirm the outcome this assay logged for "CO[Si](OC)(c1ccccc1)c1ccccc1" ?
Out: inactive

In: Could you kindly confirm the outcome this assay logged for "Nc1ccc(Oc2cccc(Oc3ccc(N)cc3)c2)cc1" ?
Out: active

In: Could you kindly confirm the outcome this assay logged for "Cc1cc(C)cc(O)c1" ?
Out: inactive

In: Could you kindly confirm the outcome this assay logged for COC(OC(C)=O)c1ccccc1 (configuration not stated) ?
Out: inactive

In: Could you kindly confirm the outcome this assay logged for "Cc1ccc(S(=O)(=O)OCC(F)(F)C(F)(F)C(F)(F)C(F)(F)C(F)(F)C(F)F)cc1" ?
Out: inactive

In: Could you kindly confirm the outcome this assay logged for "CCc1ccc(C(c2ccc(CC)cc2)C(Cl)Cl)cc1" ?
Out: inactive

In: Could you kindly confirm the outcome this assay logged for "OCC(F)(F)C(F)(F)C(F)(F)C(F)F" ?
Out: inactive

In: Could you kindly confirm the outcome this assay logged for "C=CC(=O)OCC(F)(F)C(F)(F)C(F)(F)C(F)(F)C(F)(F)C(F)(F)C(F)(F)F" ?
Out: inactive

In: Could you kindly confirm the outcome this assay logged for "[Co]" ?
Out: inactive

In: Could you kindly confirm the outcome this assay logged for "O=S(=O)(OCC(F)F)C(F)(F)F" ?
Out: inactive
